Target: His6-PYL3 / biotin-PP2C (Arabidopsis thaliana, UniProt Q9SSM7)
Construct: made in house; host or cells: not expressly stated for PYL3
Sequence (Q9SSM7 1-209): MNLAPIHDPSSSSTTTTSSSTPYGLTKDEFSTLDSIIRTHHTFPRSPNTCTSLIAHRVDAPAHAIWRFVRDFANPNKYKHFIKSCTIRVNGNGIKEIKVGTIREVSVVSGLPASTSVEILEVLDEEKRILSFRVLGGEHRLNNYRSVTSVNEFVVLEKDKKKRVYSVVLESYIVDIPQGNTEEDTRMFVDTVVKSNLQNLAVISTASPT
Experiment: AlphaScreen luminescence proximity assay, PYL3-PP2C interaction
Format: biochemical
Conditions: 100 nM His6-PYL3, 100 nM biotin-PP2C, 100 μM agonist; normalized against a pyrabactin control
EXPERIMENTAL ENDPOINT: Stimulation of the interaction between PYL3 and PP2C (binding signal)

>  <COMPOUND>
CC1(C)CC(=O)C(/C=N/CCc2ccc(S(N)(=O)=O)cc2)=C(O)C1 [Compound 10]

>  <ASSAYED SYSTEM>
His6-PYL3 / biotin-PP2C (Arabidopsis thaliana, UniProt Q9SSM7)

>  <RECORDED VALUE>
+ (+ is <25,000)

$$$$
>  <COMPOUND>
CCCCOc1cccc(C(=O)NC(=S)Nc2ccc(S(N)(=O)=O)cc2)c1 [Compound 9]

>  <ASSAYED SYSTEM>
His6-PYL3 / biotin-PP2C (Arabidopsis thaliana, UniProt Q9SSM7)

>  <RECORDED VALUE>
+ (+ is <25,000)

$$$$
>  <COMPOUND>
O=C1Nc2ccc(S(=O)(=O)NCc3ccccn3)c3cccc1c23 [Compound 1]

>  <ASSAYED SYSTEM>
His6-PYL3 / biotin-PP2C (Arabidopsis thaliana, UniProt Q9SSM7)

>  <RECORDED VALUE>
+ (+ is <25,000)

$$$$
>  <COMPOUND>
CC(C)c1ccccc1OCCNS(=O)(=O)c1ccc2ccccc2c1 [Compound 7]

>  <ASSAYED SYSTEM>
His6-PYL3 / biotin-PP2C (Arabidopsis thaliana, UniProt Q9SSM7)

>  <RECORDED VALUE>
+ (+ is <25,000)

$$$$
>  <COMPOUND>
O=S(=O)(NCCOc1ccccc1)c1ccc2ccccc2c1 [Compound 8]

>  <ASSAYED SYSTEM>
His6-PYL3 / biotin-PP2C (Arabidopsis thaliana, UniProt Q9SSM7)

>  <RECORDED VALUE>
++ (++ is 25,000−75,000)

$$$$
>  <COMPOUND>
Cc1ccc(C(=O)O)cc1NC(=S)NC(=O)c1ccccc1Cl [Compound 14]

>  <ASSAYED SYSTEM>
His6-PYL3 / biotin-PP2C (Arabidopsis thaliana, UniProt Q9SSM7)

>  <RECORDED VALUE>
+ (+ is <25,000)

$$$$
>  <COMPOUND>
CCOC(=O)CNS(=O)(=O)c1ccc2c3c(cccc13)C(=O)N2CC [Compound 2]

>  <ASSAYED SYSTEM>
His6-PYL3 / biotin-PP2C (Arabidopsis thaliana, UniProt Q9SSM7)

>  <RECORDED VALUE>
+ (+ is <25,000)

$$$$
>  <COMPOUND>
O=C(CNS(=O)(=O)c1ccccc1)OCc1ccc(Cl)c(Cl)c1 [Compound 6]

>  <ASSAYED SYSTEM>
His6-PYL3 / biotin-PP2C (Arabidopsis thaliana, UniProt Q9SSM7)

>  <RECORDED VALUE>
++ (++ is 25,000−75,000)

$$$$

src = patent US20130045952A1
